meta.source: patent US4666908A

target: adenosine A1 receptor (Rattus norvegicus, UniProt P25099); construct: Whole brain minus cerebellum and brainstem from male Long Evans rats; experiment: Adenosine Receptor Binding - A1 Receptor Affinity (RBA1), [3H]-N6-cyclohexyladenosine displacement; settings: [3H]-CHA 1.0 nM, rat brain membranes, 25° C., one hour; read-out: RBA-1, IC50 for adenosine A1 receptor affinity
Sequence (P25099 whole entry): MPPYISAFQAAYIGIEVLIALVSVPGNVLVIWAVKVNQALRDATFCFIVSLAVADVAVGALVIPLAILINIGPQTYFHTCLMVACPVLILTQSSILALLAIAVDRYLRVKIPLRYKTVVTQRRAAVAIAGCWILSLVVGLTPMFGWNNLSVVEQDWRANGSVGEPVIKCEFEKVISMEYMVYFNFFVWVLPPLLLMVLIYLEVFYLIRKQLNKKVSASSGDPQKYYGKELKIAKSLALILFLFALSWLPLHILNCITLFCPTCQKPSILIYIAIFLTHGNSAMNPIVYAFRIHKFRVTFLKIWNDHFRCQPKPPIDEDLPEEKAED
pIC50: −log10 of the molar value.
RECORDED_METRIC: pIC50

INPUT: # input compound: Cc1nn(C)c2c(=O)[nH]c(-c3ccc(S(=O)(=O)NCCN(C)C)cc3)nc12 ; wanted: its pIC50
OUTPUT: 6.16

a = Cc1nn(C)c2c(=O)[nH]c(-c3cccnc3)nc12
b = CCn1nc(C)c2nc(-c3ccccc3)[nH]c(=O)c21
c = Cc1nn(C)c2c(=O)[nH]c(-c3ccc(Cl)cc3N)nc12
d = Cc1nn(C)c2c(=O)[nH]c(-c3cccc(N)c3)nc12
INPUT: Rank the 4 compounds: largest pIC50 first, smallest last. Response field: labels, in requested order.
OUTPUT: c, b, d, a
(c: 6.50, b: 6.17, d: 5.81, a: 5.51)
